Attribute: IC50
Target: MST1 (Homo sapiens, UniProt Q13043)
Sequence (Q13043 whole entry): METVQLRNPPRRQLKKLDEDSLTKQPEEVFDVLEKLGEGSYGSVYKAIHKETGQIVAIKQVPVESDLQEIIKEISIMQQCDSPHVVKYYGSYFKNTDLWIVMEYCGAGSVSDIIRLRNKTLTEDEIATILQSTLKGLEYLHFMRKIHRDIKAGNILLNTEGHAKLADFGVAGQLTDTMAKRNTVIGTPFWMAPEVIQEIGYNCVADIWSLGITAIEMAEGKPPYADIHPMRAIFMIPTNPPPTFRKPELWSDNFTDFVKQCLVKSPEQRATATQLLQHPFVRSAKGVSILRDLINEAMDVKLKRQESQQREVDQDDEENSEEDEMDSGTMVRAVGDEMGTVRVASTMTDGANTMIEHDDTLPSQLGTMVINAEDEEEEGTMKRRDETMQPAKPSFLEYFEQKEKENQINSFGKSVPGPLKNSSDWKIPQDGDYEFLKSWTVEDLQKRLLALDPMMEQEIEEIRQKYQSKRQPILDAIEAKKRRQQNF
Experiment: In vitro measurement of MST1 inhibition (Z′-Lyte kinase assay)
Type: biochemical
Conditions: 1 μM ATP; read-out: IC50 (μM) 1 μM ATP

Check out these entries, answers already filled in.
cpdSmiles: CC1(C)CNC(=O)c2ccc(-c3nc(-c4ccc(S(=O)(=O)NC5CC5)cc4)cnc3N)cc21
testTarget: MST1 (Homo sapiens, UniProt Q13043)
IC50: < 0.01 µM
//
cpdSmiles: CN(C1CC1)S(=O)(=O)c1ccc(-c2cnc(N)c(-c3ccc4c(c3)C3(CC3)CNC4=O)n2)cc1
testTarget: MST1 (Homo sapiens, UniProt Q13043)
IC50: < 0.01 µM
//
cpdSmiles: N#CC1(c2ccc(-c3cnc(N)c(-c4ccc5c(c4)C4(CC4)NC5=O)c3)cc2)CCOCC1
testTarget: MST1 (Homo sapiens, UniProt Q13043)
IC50: < 0.05 µM
//
cpdSmiles: CC(=O)NCc1ccc(-c2cnc(N)c(-c3ccc4c(c3)CCNC4=O)c2)cc1
testTarget: MST1 (Homo sapiens, UniProt Q13043)
IC50: < 0.05 µM
//
cpdSmiles: CC1(C)CNC(=O)c2ccc(-c3cc(-c4ccc(C5(C#N)CCOCC5)cc4)cnc3N)cc21
testTarget: MST1 (Homo sapiens, UniProt Q13043)
IC50: < 0.01 µM

Find the measured IC50: item CC(C)(C#N)c1ccc(-c2cnc(N)c(-c3ccc4c(c3)CCNC4=O)n2)s1 , target or system MST1 (Homo sapiens, UniProt Q13043).
< 0.05 µM

Find the measured IC50: item CN(C1CC1)S(=O)(=O)c1ccc(-c2cnc(N)c(-c3ccc4c(c3)OC[C@H](CO)NC4=O)c2)cc1 , target or system MST1 (Homo sapiens, UniProt Q13043).
< 0.01 µM

Find the measured IC50: item CN(C1CC1)S(=O)(=O)c1ccc(-c2cnc(N)c(C3=CCN(C(=O)CC#N)CC3)c2)cc1 , target or system MST1 (Homo sapiens, UniProt Q13043).
< 0.15 µM

Find the measured IC50: item CCN(C)S(=O)(=O)c1ccc(-c2cnc(N)c(-c3ccc4c(c3)CCCNC4=O)n2)cc1 , target or system MST1 (Homo sapiens, UniProt Q13043).
< 0.05 µM

Numbers sourced from patent US8440652B2.
